Below, each entry is listed alongside its reported MIC.
Tested on: clinical methicillin resistant Staphylococcus aureus (MRSA) isolates
RUN_DESCRIPTION: MIC against clinical MRSA isolates, LB microdilution assay
CONDITION_LABEL: Staphylococcus aureus, MRSA, MRSA AG049, strain 23-12R Gm^R

COMPOUND | MIC
CNC1C(OC2OC(CO)C(N)C(O)C2O)OC2CC(N)C(OC3C(N)CC(N)C(O)C3O)OC2C1O (stereo not shown) | 8 to 16 µg/mL
CN[C@@H]1[C@@H](O)[C@@H](O[C@@H]2[C@@H](O)[C@H](O[C@H]3OC(CN)=CC[C@H]3N)[C@@H](N)C[C@H]2N)OC[C@]1(C)O | 8 µg/mL
NC[C@H]1O[C@H](O[C@H]2[C@H](O)[C@@H](O[C@H]3O[C@H](CO)[C@@H](O)[C@H](N)[C@H]3O)[C@H](N)C[C@@H]2N)[C@H](N)C[C@@H]1O | 8 to 16 µg/mL
NCC[C@H](O)C(=O)N[C@@H]1C[C@H](N)[C@@H](O[C@H]2O[C@H](CN)[C@@H](O)[C@H](O)[C@H]2O)[C@H](O)[C@H]1O[C@H]1O[C@H](CO)[C@@H](O)[C@H](N)[C@H]1O | 8 to 16 µg/mL

---

Tested on: clinical methicillin resistant Staphylococcus aureus (MRSA) isolates
RUN_DESCRIPTION: MIC against clinical MRSA isolates, LB microdilution assay
CONDITION_LABEL: Staphylococcus aureus, MRSA, MRSA AG040, strain 87-26S Gm^S
VALUE_TYPE: MIC

MOLECULE | EXPERIMENTAL_TARGET | VALUE_TYPE | EXPERIMENTAL_RESULT
CNC1C(OC2OC(CO)C(N)C(O)C2O)OC2CC(N)C(OC3C(N)CC(N)C(O)C3O)OC2C1O (centres unmarked) | clinical methicillin resistant Staphylococcus aureus (MRSA) isolates | MIC | 8 mg/L
NC[C@H]1O[C@H](O[C@H]2[C@H](O)[C@@H](O[C@H]3O[C@H](CO)[C@@H](O)[C@H](N)[C@H]3O)[C@H](N)C[C@@H]2N)[C@H](N)C[C@@H]1O | clinical methicillin resistant Staphylococcus aureus (MRSA) isolates | MIC | ≥ 256 mg/L
NC[C@H]1O[C@H](O[C@H]2[C@H](O)[C@@H](O[C@H]3O[C@H](CO)[C@@H](O)[C@H](N)[C@H]3O)[C@H](N)C[C@@H]2N)[C@H](O)[C@@H](O)[C@@H]1O | clinical methicillin resistant Staphylococcus aureus (MRSA) isolates | MIC | 128 to 256 mg/L
NCC[C@H](O)C(=O)N[C@@H]1C[C@H](N)[C@@H](O[C@H]2O[C@H](CN)[C@@H](O)[C@H](O)[C@H]2O)[C@H](O)[C@H]1O[C@H]1O[C@H](CO)[C@@H](O)[C@H](N)[C@H]1O | clinical methicillin resistant Staphylococcus aureus (MRSA) isolates | MIC | 16 to 32 mg/L
CN[C@@H]1[C@@H](O)[C@@H](O[C@@H]2[C@@H](O)[C@H](O[C@H]3OC(CN)=CC[C@H]3N)[C@@H](N)C[C@H]2N)OC[C@]1(C)O | clinical methicillin resistant Staphylococcus aureus (MRSA) isolates | MIC | 0.25 mg/L

---

Tested on: E. coli
RUN_DESCRIPTION: MIC against gram-negative bacteria
Assay type: cell-based
CONDITION_LABEL: Escherichia coli, E. coli AG08, BM13/pIP055, resistance mechanism ANT(2″); read-out: MIC

MOLECULE | EXPERIMENTAL_TARGET | UNIT_LABEL | MIC
CN[C@@H]1[C@@H](O)[C@@H](O[C@@H]2[C@@H](O)[C@H](O[C@H]3OC(CN)=CC[C@H]3N)[C@@H](N)C[C@H]2N)OC[C@]1(C)O | E. coli | µg/mL | 8
CNC1C(OC2OC(CO)C(N)C(O)C2O)OC2CC(N)C(OC3C(N)CC(N)C(O)C3O)OC2C1O (centres unmarked) | E. coli | µg/mL | 4
